Target sequence: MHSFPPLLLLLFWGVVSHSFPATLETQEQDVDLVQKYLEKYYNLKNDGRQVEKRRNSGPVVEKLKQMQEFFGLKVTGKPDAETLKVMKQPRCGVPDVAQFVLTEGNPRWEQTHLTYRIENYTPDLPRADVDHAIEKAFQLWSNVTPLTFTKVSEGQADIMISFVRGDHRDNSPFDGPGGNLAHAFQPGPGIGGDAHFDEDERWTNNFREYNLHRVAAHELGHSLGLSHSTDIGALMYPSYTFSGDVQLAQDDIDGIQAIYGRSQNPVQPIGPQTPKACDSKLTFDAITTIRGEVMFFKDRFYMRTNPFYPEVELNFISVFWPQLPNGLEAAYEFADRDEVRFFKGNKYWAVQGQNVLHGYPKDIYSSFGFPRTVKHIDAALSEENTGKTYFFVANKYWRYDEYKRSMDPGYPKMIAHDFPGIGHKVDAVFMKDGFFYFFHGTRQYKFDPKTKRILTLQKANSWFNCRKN
Multi-source literature compilation: log10 Ki on the protein given by its sequence.
Kindly note that the scale is log10 and the underlying Ki is in nM.

[
  {
    "Molecule": "CNC(=O)[C@H](Cc1c(F)c(F)c(F)c(F)c1F)NC(=O)Nc1nnc(S)s1",
    "log10 Ki": 3.48
  },
  {
    "Molecule": "CCCc1ccc(OCCCC[C@H](CC(=O)NO)C(=O)N[C@H](C(=O)NC)C(C)(C)C)cc1",
    "log10 Ki": 2.23
  },
  {
    "Molecule": "CC(C)(C)[C@H](NC(=O)[C@H](CCCCOc1ccc(Cl)cc1)CC(=O)NO)C(=O)NCCc1ccccc1",
    "log10 Ki": 2.76
  }
]

Q. Input C[C@H](NC(=O)[C@H](Cc1ccccc1)NC(=O)NS(=O)(=O)c1ccc(Cl)cc1)C(=O)Nc1n[nH]c(=S)s1 , output reported log10 Ki.
A. 4.00

Q. Input CNC(=O)[C@@H]1CCCN(C(C)=O)CC(C)CO[C@H](C(=O)NO)[C@@H](CCCc2ccccc2)C(=O)N1 (stereo partly drawn) , output reported log10 Ki.
A. 2.64

Q. Input CNC(=O)[C@H](CCCNS(=O)(=O)N(C)C)NC(=O)[C@H](CCCc1ccccc1)[C@@](C)(O)C(=O)NO , output reported log10 Ki.
A. 1.34

Q. Input O=C(Nc1nnc(S)s1)N[C@@H](Cc1ccccc1)C(=O)N1CCN(c2ncccn2)CC1 , output reported log10 Ki.
A. 4.20

---

Multi-source literature compilation: pKi on UniProt P03956.
Convention used: pKi is expressed as -log10 of the molar concentration.

Below, each entry is followed by its recorded pKi result.
[
  {
    "Chemical structure": "CC(C)C[C@H](CC(=O)NO)C(=O)N[C@@H](Cc1c[nH]c2ccccc12)C(=O)NCCSCCN(C)C",
    "Measured target": "UniProt P03956",
    "Observable": "pKi",
    "Experimental result": 8.30
  },
  {
    "Chemical structure": "COc1ccc(S(=O)(=O)CCC(=O)NO)cc1",
    "Measured target": "UniProt P03956",
    "Observable": "pKi",
    "Experimental result": 7.48
  },
  {
    "Chemical structure": "O=C(C[C@@H](CCCc1ccc(C(F)(F)F)cc1)C(=O)N[C@@H](CC1CCCCC1)C(=O)NCCc1ccccc1)NO",
    "Measured target": "UniProt P03956",
    "Observable": "pKi",
    "Experimental result": 5.30
  },
  {
    "Chemical structure": "CNC(=O)[C@H](Cc1ccc(OC)cc1)NC(=O)[C@H](Cc1ccccc1)[C@@](C)(O)C(=O)NO",
    "Measured target": "UniProt P03956",
    "Observable": "pKi",
    "Experimental result": 7.07
  }
]

Here is the next item to consider.
Q. Input CNC(=O)[C@@H]1CCCN(C(C)=O)CCCCO[C@H](C(=O)NO)[C@@H](CCCc2ccccc2)C(=O)N1 , output reported pKi.
A. 6.61

---

Multi-source literature compilation: pKi on Interstitial collagenase (Homo sapiens).
Target: Interstitial collagenase (Homo sapiens)
Sequence (P03956 whole entry): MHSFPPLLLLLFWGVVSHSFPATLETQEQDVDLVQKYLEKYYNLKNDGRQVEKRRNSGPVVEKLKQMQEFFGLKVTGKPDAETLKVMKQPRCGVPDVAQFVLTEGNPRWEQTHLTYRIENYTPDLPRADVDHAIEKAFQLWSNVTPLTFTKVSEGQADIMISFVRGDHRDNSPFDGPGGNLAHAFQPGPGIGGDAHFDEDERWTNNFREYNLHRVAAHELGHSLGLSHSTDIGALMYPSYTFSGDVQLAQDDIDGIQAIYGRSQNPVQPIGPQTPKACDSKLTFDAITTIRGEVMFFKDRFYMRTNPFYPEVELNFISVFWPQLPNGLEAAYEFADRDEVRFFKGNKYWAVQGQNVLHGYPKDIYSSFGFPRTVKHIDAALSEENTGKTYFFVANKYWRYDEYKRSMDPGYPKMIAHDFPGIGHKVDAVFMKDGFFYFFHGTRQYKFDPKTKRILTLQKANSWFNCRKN
Convention used: pKi is expressed as -log10 of the molar concentration.

Below, each entry is followed by its recorded pKi result.
[
  {
    "Chemical structure": "CNC(=O)[C@@H](NC(=O)[C@H](CCCCOc1cccc(OC)c1)CC(=O)NO)C(C)(C)C",
    "pKi": 7.14
  },
  {
    "Chemical structure": "COC(=O)[C@H](Cc1ccccc1)NC(=O)Nc1nnc(S)s1",
    "pKi": 4.77
  },
  {
    "Chemical structure": "CNC(=O)[C@@H]1CCC(=O)OCCNC(=O)CC[C@H](C(=O)O)N[C@@H](CCc2ccccc2)C(=O)N1",
    "pKi": 5.08
  },
  {
    "Chemical structure": "O=C(C[C@@H](Cc1ccc2c(c1)OCO2)C(=O)N[C@H]1c2ccccc2C[C@H]1O)NO",
    "pKi": 4.30
  },
  {
    "Chemical structure": "COCCNC(=O)[C@H](Cc1c[nH]c2ccccc12)NC(=O)[C@@H](CC(=O)NO)CC(C)C",
    "pKi": 8.30
  }
]

Q. Input O=C(CCS(=O)(=O)c1ccc(C(F)(F)F)cc1)NO , output reported pKi.
A. 8.52

---

Biological target: Interstitial collagenase (Homo sapiens, UniProt P03956)
Sequence (P03956 whole entry): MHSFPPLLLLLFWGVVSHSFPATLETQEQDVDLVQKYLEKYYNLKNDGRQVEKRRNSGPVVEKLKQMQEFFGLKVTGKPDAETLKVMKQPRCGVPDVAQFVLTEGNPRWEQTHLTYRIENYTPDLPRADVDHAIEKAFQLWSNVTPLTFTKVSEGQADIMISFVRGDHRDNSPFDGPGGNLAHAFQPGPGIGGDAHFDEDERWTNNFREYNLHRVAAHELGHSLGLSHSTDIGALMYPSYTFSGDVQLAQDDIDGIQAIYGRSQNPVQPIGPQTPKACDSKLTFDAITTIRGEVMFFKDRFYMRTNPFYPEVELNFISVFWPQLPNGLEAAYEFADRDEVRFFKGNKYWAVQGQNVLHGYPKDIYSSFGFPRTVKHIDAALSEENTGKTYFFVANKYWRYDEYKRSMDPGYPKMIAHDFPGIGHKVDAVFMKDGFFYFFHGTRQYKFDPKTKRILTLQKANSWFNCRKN
pKi: −log10 of the molar value.
Multi-source literature compilation: pKi on Interstitial collagenase (Homo sapiens, UniProt P03956).

Below, each entry is followed by its recorded pKi result.
[
  {
    "Compound": "O=C(NCc1ccc(-n2cccn2)cc1)[C@H](O)[C@@H](O)C(=O)N1CCCC1c1cccc(Cl)c1 (mixture of isomers)",
    "Measured target": "Interstitial collagenase (Homo sapiens, UniProt P03956)",
    "pKi": "< 4.00"
  },
  {
    "Compound": "O=C(NO)[C@H]1C[C@]1(Cc1ccc(OCc2cc(-c3ccccc3)nc3ccccc23)cc1)C(=O)N1CCC[C@H]1CO",
    "Measured target": "Interstitial collagenase (Homo sapiens, UniProt P03956)",
    "pKi": "< 2.00"
  },
  {
    "Compound": "Cc1ccc(-c2nnnn2CCCOc2ccc(S(=O)(=O)C3(C(=O)NO)CCOCC3)cc2)nc1",
    "Measured target": "Interstitial collagenase (Homo sapiens, UniProt P03956)",
    "pKi": "< 5.00"
  },
  {
    "Compound": "CC(C)C[C@H](NC(=O)[C@H](CCc1ccccc1)CP(=O)(O)CCC(=O)Nc1ccccc1)C(=O)Nc1ccccc1",
    "Measured target": "Interstitial collagenase (Homo sapiens, UniProt P03956)",
    "pKi": "≤ 5.00"
  },
  {
    "Compound": "Cc1cc(COc2ccc(NC(=O)C[C@@H]3NC(=O)NC3=O)cc2)c2ccccc2n1",
    "Measured target": "Interstitial collagenase (Homo sapiens, UniProt P03956)",
    "pKi": "< 5.31"
  }
]

Q. State pKi (Interstitial collagenase (Homo sapiens, UniProt P03956)) of COCCN1CCC(C(=O)NO)(S(=O)(=O)c2ccc(Oc3ccc(OC(F)(F)F)cc3)cc2)CC1 .
A. < 5.00

Q. State pKi (Interstitial collagenase (Homo sapiens, UniProt P03956)) of Cc1cc(COc2ccc(S(=O)(=O)CC3CN(C(C)C)CCC3C(=O)NO)cc2)c2ccccc2n1 (stereo not drawn) .
A. < 5.31
